# tested on: SARS-CoV-2 spike protein on pseudotyped lentivirus (Wuhan Reference Pseudovirus) (SARS-CoV-2, UniProt P0DTC2 14-1273)
# experimental details: cell-based or functional assay
recorded metric: infectivity % under 10 ug/mL VHH treatment (%)
Numbers only, in %.

Example binders with recorded infectivity % under 10 ug/mL VHH treatment:
* PP1098 MBP-5HVZ-PAPA-RN-9-H6 (VHH) VHH: QVQLVESGGGLVQPGGSLRLSCAASGLRFAMTEMAWFRQAPGKQREFVALITEGGSGSYGDSVKGRFTISRDNAKNTVYLQMNSLKPEDTAVYYCAALHYTEGANTESATTFDYWGQGTQVTVSS | 58.3
* PP1134 MBP-4B0F-PAPA-R2d-D3-H6 (VHH, Form: Heptamer) VHH: QVQLVESGGGLVQPGGSLRLSCAASGHIFSINNAAWVRQAPGKSREGVATIHSGGGTYYSDSVKGRFTISRDNAKNTVYLQMNSLKPEDTAVYYCNAEVSTGAGSRGRVSDVYWGQGTQVTVSS | 10.9
* PP906 MBP-5HVZ-S1b-E7-H6 (VHH, Form: Dimer) VHH: QVQLVESGGGLVQPGGSLRLSCAASGGEFSDNGLHWFRQAPGKQREFVATASSDGSTQYRDSVKGRFTISRDNAKNTVYLQMNSLKPEDTAVYYCTALLMSSAGEYDVWGQGTQVTVSS | 69.6

Consider the additional binder presented here.
Data request, read-out infectivity % under 10 ug/mL VHH treatment, for PP901 MBP-5HVZ-R1e-B2-H6 (VHH, Form: Dimer) VHH: QVQLVESGGGLVQPGGSLRLSCAASGQITAENYMHWYRQAPGKQREWVAAITTGGSTLYADSVKGRFTISRDNAKNTVYLQMNSLKPEDTAVYYCNADRSYFPDYWGQGTQVTVSS 72.1
